- System: Rattus norvegicus
- RUN DESCRIPTION: Ex vivo induction of NQO1 in Sprague-Dawley rat bladder at 7.5 umol/kg/day, po for 10 days measured on day 11 relative to control
- Assay type: functional
RESULT TYPE: fold change (FC)
Note: the reply should be a number with no unit written.

For the record "Cc1cssc1=S" , what value of fold change (FC) is listed for Rattus norvegicus? 1.83

For the record "Cc1c(S)ssc1=S" , what value of fold change (FC) is listed for Rattus norvegicus? 1.29

For the record "Oc1ccc(-c2cc(=S)ss2)cc1" , what value of fold change (FC) is listed for Rattus norvegicus? 1.02

---

- System: Rattus norvegicus
- RUN DESCRIPTION: Ex vivo induction of NQO1 in Sprague-Dawley rat bladder at 7.5 umol/kg/day, po for 10 days measured on day 11 relative to control
- Type: functional
RESULT TYPE: fold change (FC)
Note: the reply should be a number with no unit written.

O=C(O)c1cc(=S)ss1 ... 1.27
CC1CCc2c1ssc2=S (stereo not drawn) ... 1.91
S=c1ssc(S)c1-c1ccccc1 ... 1.11
S=c1ssc2c1CCCC2 ... 1.46

For the record "O=c1ccss1" , what value of fold change (FC) is listed for Rattus norvegicus? 1.26

For the record "COC(=O)c1cssc1=S" , what value of fold change (FC) is listed for Rattus norvegicus? 5.05

For the record "S=c1ccss1" , what value of fold change (FC) is listed for Rattus norvegicus? 2.78

For the record CC1Cc2ssc(=S)c2C1 (stereo not drawn) , what value of fold change (FC) is listed for Rattus norvegicus? 1.81

---

- Tested on: Rattus norvegicus
- RUN DESCRIPTION: Ex vivo induction of NQO1 in Sprague-Dawley rat stomach at 7.5 umol/kg/day, po for 10 days measured on day 11 relative to control
- Format: functional
RESULT TYPE: fold change (FC)

Past entries and their recorded results:
COC(=O)C1CCc2c1ssc2=S (stereo unspecified) ... 1.98
S=c1ccss1 ... 5.31
COC(=O)c1cssc1=S ... 2.36
S=c1ssc2c1CCC2 ... 3.55
CCOC(=O)C1CCc2c1ssc2=S (stereo unspecified) ... 1.93

Kindly review the next molecule as well.
Give its fold change (FC) value. Item: "CCOC(=O)c1cssc1=S" 2.15

---

Reported values of fold change (FC) for individual entries
- System: Rattus norvegicus
- RUN DESCRIPTION: Ex vivo induction of GST in Sprague-Dawley rat bladder at 7.5 umol/kg/day, po for 10 days measured on day 11 relative to control
- Format: functional
Note: the reply should be a number with no unit written.

Past entries and their recorded results:
CCOC(=O)C1Cc2ssc(=S)c2C1 (stereo not given) ... 1.11
O=c1ccss1 ... 1.01
COC(=O)c1c(C)ssc1=S ... 1.24
O=C(O)c1cc(=S)ss1 ... 1.11
O=c1ssc2c1CCC2 ... 1.11

Give its fold change (FC) value. Item: CC1Cc2ssc(=S)c2C1 (stereo not given) 1.31

Give its fold change (FC) value. Item: CC1CCc2c1ssc2=S (stereo not given) 1.3

Give its fold change (FC) value. Item: "CCOC(=O)c1cc(=S)ss1" 1.09

---

- Tested on: Rattus norvegicus
- RUN DESCRIPTION: Ex vivo induction of NQO1 in Sprague-Dawley rat liver at 7.5 umol/kg/day, po for 10 days measured on day 11 relative to control
- Format: functional
Reported values of fold change (FC) for individual entries
Note: the reply should be a number with no unit written.

CCOC(=O)c1cssc1=S ... 1.04
S=c1ssc2c1CCC2 ... 1.26
CCOC(=O)C1CCc2c1ssc2=S (stereo unspecified) ... 1.17
S=c1ccss1 ... 1.3
COC(=O)C1CCc2c1ssc2=S (stereo unspecified) ... 1.1

Kindly review the next compound as well.
Give its fold change (FC) value. Item: "COC(=O)c1cssc1=S" 1.07

---

Reported values of fold change (FC) for individual entries
- Tested on: Rattus norvegicus
- RUN DESCRIPTION: Ex vivo induction of NQO1 in Sprague-Dawley rat bladder at 7.5 umol/kg/day, po for 10 days measured on day 11 relative to control
- Format: functional
Note: the reply should be a number with no unit written.

Past entries and their recorded results:
S=c1ssc2c1CCCCCC2 ... 1.08
O=C(O)c1cssc1=S ... 3.69
COC(=O)C1CCc2c1ssc2=S (centres undefined) ... 4.39

Give its fold change (FC) value. Item: "CCOC(=O)c1c(N)ssc1=S" 2.03

Give its fold change (FC) value. Item: "CCOC(=O)c1cssc1=S" 4.82

Give its fold change (FC) value. Item: CCOC(=O)C1Cc2ssc(=S)c2C1 (centres undefined) 1.23

Give its fold change (FC) value. Item: "CCOC(=O)c1cc(=S)ss1" 1.13

Give its fold change (FC) value. Item: "O=c1ssc2c1CCC2" 1.24

Give its fold change (FC) value. Item: "S=c1ssc2c1CCCCC2" 1.2

Give its fold change (FC) value. Item: "Cc1ssc(=S)c1C(=O)O" 1.1

---

Reported values of fold change (FC) for individual entries
- System: Rattus norvegicus
- RUN DESCRIPTION: Ex vivo induction of GST in Sprague-Dawley rat bladder at 7.5 umol/kg/day, po for 10 days measured on day 11 relative to control
- Format: functional
Note: the reply should be a number with no unit written.

O=C(O)c1cssc1=S ... 2.11

Give its fold change (FC) value. Item: "CCOC(=O)c1c(N)ssc1=S" 1.25

Give its fold change (FC) value. Item: "Cc1c(S)ssc1=S" 1.08

Give its fold change (FC) value. Item: "S=c1ssc2c1CCCC2" 1.05

Give its fold change (FC) value. Item: "CCOC(=O)c1cssc1=S" 2.76

Give its fold change (FC) value. Item: "Cc1cc(=S)ss1" 1.08

---

- Tested on: Rattus norvegicus
- RUN DESCRIPTION: Ex vivo induction of NQO1 in Sprague-Dawley rat bladder at 7.5 umol/kg/day, po for 10 days measured on day 11 relative to control
- Format: functional
RESULT TYPE: fold change (FC)
Note: the reply should be a number with no unit written.

Past entries and their recorded results:
CCOC(=O)C1CCc2c1ssc2=S (centres undefined) ... 4.47
Cc1cc(=S)ss1 ... 1.23
S=c1ssc2c1CCC2 ... 3.14

Give its fold change (FC) value. Item: "COC(=O)c1c(C)ssc1=S" 1.24

---

- System: Rattus norvegicus
- RUN DESCRIPTION: Ex vivo induction of GST in Sprague-Dawley rat bladder at 7.5 umol/kg/day, po for 10 days measured on day 11 relative to control
- Type: functional
Reported values of fold change (FC) for individual entries
Note: the reply should be a number with no unit written.

Past entries and their recorded results:
CCOC(=O)C1CCc2c1ssc2=S (stereo unspecified) ... 2.29
Oc1ccc(-c2cc(=S)ss2)cc1 ... 0.95
Cc1ssc(=S)c1C(=O)O ... 0.99
S=c1ssc(S)c1-c1ccccc1 ... 1.03
S=c1ssc2c1CCCCC2 ... 1.14
COC(=O)c1cssc1=S ... 2.69
S=c1ccss1 ... 1.7
S=c1ssc2c1CCC2 ... 1.68
Cc1cssc1=S ... 1.23
COC(=O)C1CCc2c1ssc2=S (stereo unspecified) ... 2.31

Give its fold change (FC) value. Item: "S=c1ssc2c1CCCCCC2" 1.11
